Data credit: ChEMBL document CHEMBL1201862

system: CCRF-CEM; test: NCI tumour cell line growth inhibition, 48 h
The source made the active and inactive calls. No stated cut-off is given here; in the data, active = GI50 up to about 1.1 µM and inactive = higher.
# GI50 per record follows

# molecule, GI50
measured = [
    ("CCCCN(CCCC)C(=Nc1ccccc1)N(CCCC)CCCC", "3.89 µM (inactive)"),
]

Q: // returns reported GI50 for input CCOC(=O)c1[nH]c2c(OC)n[n+]([O-])cc2c1[N+](=O)[O-]
Ans: 26.1 µM (inactive)

Q: Entry O=C1Nc2cccc(Cl)c2/C1=C\c1c(Cl)nc2sccn12 please
Ans: > 100 µM (inactive)

Q: Entry Cc1ccc(S(=O)(=O)N/N=C2\CCCCC23CCC(=O)NC3)cc1 (stereo unspecified) please
Ans: > 100 µM (inactive)

Q: Entry N#CC1=C(S)N(C2OC(CO)C(O)C(O)C2O)C(c2ccccc2)=CC1c1ccco1 (stereo unspecified) please
Ans: 88.9 µM (inactive)

Q: Entry CCCCCC(=O)C(C)C1=Nc2nnc(CCCCCCCc3nnc4n3C(=O)C(C(C)C(=O)CCCCC)=N4)n2C1=O (stereo unspecified) please
Ans: > 100 µM (inactive)
